read-out: Intercellular Adhesion Molecule 1 (ICAM1), ICAM1 (gene 3383); assay: LTEA_HepaRG_ICAM1: Life Technologies and Expression Analysis (LTEA) Assay for Intercellular Adhesion Molecule 1 (ICAM1) using HepaRG (AID 2283507); conditions: mRNA level, 48 h; actives raise or lower the signal
Active and inactive are the calls of the source. The calls were made as follows: active = hit-call score of the fitted dose curve at least 0.9, where 1 is the maximum; inactive = score below 0.9.
Please answer using one outcome listed in active, inactive

CCOC(=O)CC(SP(=S)(OC)OC)C(=O)OCC (configuration not stated) :: inactive
CS/C(C)=N/OC(=O)N(C)SN(C)C(=O)O/N=C(\C)SC :: inactive
COC(=O)C=C(C)OP(=O)(OC)OC :: inactive

Assay outcome for "COP(=S)(OC)Oc1nc(Cl)c(Cl)cc1Cl" : what was it? inactive

Assay outcome for "CNC(=O)ON=CC(C)(C)SC" : what was it? inactive

Assay outcome for "CON(C)C(=O)Nc1ccc(Cl)c(Cl)c1" : what was it? inactive

Assay outcome for CC(Oc1ccc(Cl)cc1Cl)C(=O)O (configuration not stated) : what was it? inactive

Assay outcome for "CCCCOC(=O)c1ccccc1C(=O)OCCCC" : what was it? inactive

Assay outcome for "COc1nc(NC(C)C)nc(NC(C)C)n1" : what was it? inactive

---

read-out: Apolipoprotein A-V (APOA5) gene, APOA5 (gene 116519); assay: LTEA_HepaRG_APOA5: Life Technologies and Expression Analysis (LTEA) Assay for Apolipoprotein A-V (APOA5) gene using HepaRG (AID 2283474); conditions: mRNA level, 48 h; actives raise or lower the signal
Activity calls are given as the source filed them. The calls were made as follows: active = hit-call score of the fitted dose curve at least 0.9, where 1 is the maximum; inactive = score below 0.9.
Please answer using one outcome listed in t for active, f for inactive

Some solved entries appear below for comparison.
CS/C(C)=N/OC(=O)N(C)SN(C)C(=O)O/N=C(\C)SC :: f
COC(=O)C(C)Oc1ccc(Oc2ccc(Cl)cc2Cl)cc1 (stereo not given) :: f
CC1=C(C(=O)Nc2ccccc2)SCCO1 :: t
CC(C)Oc1cc(-n2nc(C(C)(C)C)oc2=O)c(Cl)cc1Cl :: t

For the next question, use this compound.
Assay outcome for "COc1cnc(OC)n2nc(NS(=O)(=O)c3c(OCC(F)F)cccc3C(F)(F)F)nc12" : what was it? f

---

Assay: CCTE_Simmons_MITO_max_resp_rate: CCTE's HepG2 Seahorse XF Respirometric Screening Assay at Maximal Respiratory State [uncoupled], Simmons Lab (AID 2284002)
Conditions: actives raise or lower the signal
Description: CCTE_Simmons_MITO is cell-based, respirometric assay using HepG2 cells and a Seahorse XF Analyzer to measure oxygen consumption rates over four temporal phases spanning a total of 72 minutes: pre-injection (pre-treatment), basal (following test compound injection), maximal (following FCCP uncoupler injection), and inhibited (following rotenone/antimycin A injection)CCTE_Simmons_MITO_max_resp_rate is one of 4 assay components calculated from the CCTE_Simmons_MITO assay. […]
Calls of active or inactive are those of the source. How the source made its calls: active means hit-call score of the fitted dose curve at least 0.9, where 1 is the maximum; inactive means score below 0.9.
Please answer using one outcome listed in active, inactive

Some solved entries appear below for comparison.
COP(=S)(OC)Oc1nc(Cl)c(Cl)cc1Cl :: inactive
C#CCOS(=O)OC1CCCCC1Oc1ccc(C(C)(C)C)cc1 (centres undefined) :: active
O=C(Nc1ccccc1)Nc1ccnc(Cl)c1 :: active
CC(C)(C)c1ccc(CSc2cnn(C(C)(C)C)c(=O)c2Cl)cc1 :: active
COc1nc(NC(C)C)nc(NC(C)C)n1 :: inactive

Assay outcome for "Oc1ccccc1-c1ccccc1" : what was it? inactive

Assay outcome for "CON(C)C(=O)Nc1ccc(Cl)c(Cl)c1" : what was it? inactive

Assay outcome for "CCc1nn(C)c(C(=O)NCc2ccc(C(C)(C)C)cc2)c1Cl" : what was it? active

Assay outcome for "Cc1ccc(-c2c(Cl)nc(C#N)n2S(=O)(=O)N(C)C)cc1" : what was it? active
